The origin of these recorded values is patent US20240132589A1.

# TARGET_SYSTEM: T1, LILRB2-Fc protein (human, UniProt Q8N423 22-460, limits assumed)
# T1 construct: also called human LILRB2-Fc; not shown: Fc part
# T1 sequence (Q8N423 22-460 limits assumed): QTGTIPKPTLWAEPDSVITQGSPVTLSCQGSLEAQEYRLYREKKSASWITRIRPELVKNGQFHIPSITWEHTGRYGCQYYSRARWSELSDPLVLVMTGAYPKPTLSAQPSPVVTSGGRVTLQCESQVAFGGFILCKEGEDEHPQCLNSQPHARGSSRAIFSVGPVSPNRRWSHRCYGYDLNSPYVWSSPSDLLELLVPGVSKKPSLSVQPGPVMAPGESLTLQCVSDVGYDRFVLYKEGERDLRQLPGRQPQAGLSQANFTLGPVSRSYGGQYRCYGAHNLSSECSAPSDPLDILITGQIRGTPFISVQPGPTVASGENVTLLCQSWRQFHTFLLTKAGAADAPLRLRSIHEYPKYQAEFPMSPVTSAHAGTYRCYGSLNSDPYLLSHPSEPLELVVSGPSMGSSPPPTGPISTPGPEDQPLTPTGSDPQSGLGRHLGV
# MEASUREMENT_DESCRIPTION: blocking ELISA, LILRB2-Fc binding to coated monomer HLA-G; Exp II
OBSERVATION_TYPE: IC50 (µg/mL)
# number only, unit µg/mL dropped from output

B2H4-13 (antibody, V domains shown, Humanized variant, human IgG4 / kappa) VH: QVQLEESGGRVVQPGRSLRLSCAASGFSLSTYAMSWVRQAPGKGLEWIGWIYNDGSTYYAAWAKGRFTISKDTSKTTVFLQMNSLKPDDTATYFCAREGDYIGYFNIWGQGTLVTVSS VL: DIEMTQSPSSVSASVGDRVTLTCQASQSIGSNLAWYQQKPGQAPKLLIYAAATLASGVPSRFKGSGSGTDFTLTISSLQPEDFATYYCQSYVSGSSDVAFGGGTEVVVK    5.97

Please find the next binder below.
// query Field request: IC50 | item: B2H4-54 (antibody, V domains shown, Humanized variant, human IgG4 / kappa) VH: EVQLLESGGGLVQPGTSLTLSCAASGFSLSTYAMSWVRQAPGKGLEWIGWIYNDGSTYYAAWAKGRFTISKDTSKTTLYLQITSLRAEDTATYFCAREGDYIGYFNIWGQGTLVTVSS VL: DIQMTQSPSSVSASVGDRVTITCQASQSIGSNLAWYQQKPGKAPKLLIYAAATLASGVPLRFSGSGSGTDFTLTISNLQPEDSATYYCQSYVSGSSDVAFGGGTKVEIK
// result 4.09
